target: NSD2 [1-1365] (Homo sapiens (Human), UniProt O96028); assay: LC-MS/MS-based NSD2 enzymatic assay (SAH production); type: biochemical; settings: read-out: NSD2 IC50
Sequence (O96028 whole entry): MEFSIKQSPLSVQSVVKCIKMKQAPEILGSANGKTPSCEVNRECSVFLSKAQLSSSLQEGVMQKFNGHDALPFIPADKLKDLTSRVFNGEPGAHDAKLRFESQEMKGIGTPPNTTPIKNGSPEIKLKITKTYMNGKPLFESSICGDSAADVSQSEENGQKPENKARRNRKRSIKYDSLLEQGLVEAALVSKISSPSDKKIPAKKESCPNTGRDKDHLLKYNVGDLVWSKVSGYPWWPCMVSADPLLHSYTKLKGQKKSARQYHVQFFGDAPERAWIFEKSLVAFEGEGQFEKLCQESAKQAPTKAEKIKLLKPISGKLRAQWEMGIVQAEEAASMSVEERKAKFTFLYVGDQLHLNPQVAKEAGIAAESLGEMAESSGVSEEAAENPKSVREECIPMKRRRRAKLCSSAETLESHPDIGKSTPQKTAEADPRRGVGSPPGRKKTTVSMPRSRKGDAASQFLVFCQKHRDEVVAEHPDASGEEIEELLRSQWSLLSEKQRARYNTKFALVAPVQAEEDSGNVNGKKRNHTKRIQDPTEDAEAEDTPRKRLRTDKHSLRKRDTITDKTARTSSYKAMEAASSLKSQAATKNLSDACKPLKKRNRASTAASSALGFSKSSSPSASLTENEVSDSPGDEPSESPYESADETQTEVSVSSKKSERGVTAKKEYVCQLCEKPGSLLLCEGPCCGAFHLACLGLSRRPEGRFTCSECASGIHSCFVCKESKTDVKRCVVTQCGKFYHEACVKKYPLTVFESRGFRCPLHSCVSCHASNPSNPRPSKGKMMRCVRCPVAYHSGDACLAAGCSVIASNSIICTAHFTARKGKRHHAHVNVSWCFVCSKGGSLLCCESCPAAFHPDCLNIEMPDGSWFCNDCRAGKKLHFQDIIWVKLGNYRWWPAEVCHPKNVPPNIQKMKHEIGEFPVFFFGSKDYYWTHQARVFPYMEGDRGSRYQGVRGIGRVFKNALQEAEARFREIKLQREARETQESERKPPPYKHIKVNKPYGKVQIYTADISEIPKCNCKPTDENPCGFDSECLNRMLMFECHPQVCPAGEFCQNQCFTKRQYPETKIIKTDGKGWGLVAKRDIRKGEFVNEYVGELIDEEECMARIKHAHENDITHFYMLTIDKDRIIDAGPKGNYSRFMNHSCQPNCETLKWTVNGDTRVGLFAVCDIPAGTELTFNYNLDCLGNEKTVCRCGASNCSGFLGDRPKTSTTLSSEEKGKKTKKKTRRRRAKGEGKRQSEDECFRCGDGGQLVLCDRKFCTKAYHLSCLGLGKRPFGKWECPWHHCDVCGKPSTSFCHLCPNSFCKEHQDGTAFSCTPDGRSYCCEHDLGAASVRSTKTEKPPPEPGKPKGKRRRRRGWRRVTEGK
pIC50: −log10 of the molar value.
metric: pIC50

Reported pIC50 for NSD2 [1-1365] (Homo sapiens (Human), UniProt O96028), given COCC1CC(N)CN(c2cnc(-c3ccc(F)c(F)c3)cc2Cn2cnc3c(N)ncnc32)C1 (stereo not drawn) ?
6.00 to 8.00

New cases:
Reported pIC50 for NSD2 [1-1365] (Homo sapiens (Human), UniProt O96028), given Nc1ncnc2c1ncn2Cc1cc(-c2ccc(F)cc2)ncc1N1CCC[C@](N)(c2cccc(C(F)F)n2)C1 ?
8.00 to 9.00

Reported pIC50 for NSD2 [1-1365] (Homo sapiens (Human), UniProt O96028), given Cc1cc([C@@]2(N)CCCN(c3cnc(-c4ccc(F)c(F)c4)cc3Cn3cnc4c(N)ncnc43)C2)ccn1 ?
6.00 to 8.00

Reported pIC50 for NSD2 [1-1365] (Homo sapiens (Human), UniProt O96028), given Nc1nccc2c1ncn2Cc1cc(C2CC2)ncc1N1CCC[C@](N)(c2cccc(C(F)F)n2)C1 ?
6.00 to 8.00

Reported pIC50 for NSD2 [1-1365] (Homo sapiens (Human), UniProt O96028), given Nc1ncnc2c1ncn2Cc1cc(-c2ccc(F)cc2F)ncc1N1CCC[C@](N)(c2cccc(Cl)n2)C1 ?
8.00 to 9.00

Reported pIC50 for NSD2 [1-1365] (Homo sapiens (Human), UniProt O96028), given Nc1ncnc2c1ncn2Cc1cc(-c2ccc(F)c(F)c2F)ncc1N1CCC[C@](N)([C@@H](O)C(F)F)C1 ?
6.00 to 8.00

Reported pIC50 for NSD2 [1-1365] (Homo sapiens (Human), UniProt O96028), given CN(C)C(=O)CC[C@@]1(N)CCCN(c2cnc(-c3ccc(F)c(F)c3)cc2Cn2cnc3c(N)ncnc32)C1 ?
6.00 to 8.00

meta.source: patent US11420970B1
